Recorded measurements of CC50 at 72 h, one per entry
# assay text: Cytotoxicity in vitro assay (CellTiter Glo, ATP level)
# Format: cell-based
# condition set: African green monkey, Vero cells, Table 2, read-out: CC50 Vero

compound | unit info | result operator | CC50 at 72 h
O=C1C(O)=C(C(Sc2ccc(Cl)cc2)c2ccccc2Cl)C(=O)c2ccccc21 (centres unmarked) | µM | = | 44.1
COc1ccc(SC(C2=C(O)C(=O)c3ccccc3C2=O)c2ccc(OC)cc2)cc1 (centres unmarked) | µM | = | 44.8
COc1ccc(C(Sc2ccc(Cl)cc2)C2=C(O)C(=O)c3ccccc3C2=O)cc1 (centres unmarked) | µM | = | 99.5
COc1ccc(C(Sc2ccccc2C)C2=C(O)C(=O)c3ccccc3C2=O)cc1 (centres unmarked) | µM | = | 44.4
COc1ccc(C(Sc2ccccc2)C2=C(O)C(=O)c3ccccc3C2=O)cc1 (centres unmarked) | µM | = | 45.1
COc1ccc(C(Sc2ccc3ccccc3c2)C2=C(O)C(=O)c3ccccc3C2=O)cc1 (centres unmarked) | µM | = | 63.4
O=C(Cn1ccnc1[N+](=O)[O-])NCc1ccccc1 [Bz, benznidazole, reference compound] | µM | > | 500
COc1ccc(C(Sc2ccc(SC)cc2)C2=C(O)C(=O)c3ccccc3C2=O)cc1 (centres unmarked) | µM | = | 93.5
COc1ccc(C(Sc2ccc(F)cc2)C2=C(O)C(=O)c3ccccc3C2=O)cc1 (centres unmarked) | µM | = | 47.7
O=C1C(O)=C(C(Sc2ccc(Cl)cc2)c2cccc(Cl)c2)C(=O)c2ccccc21 (centres unmarked) | µM | = | 42.1
O=C1C(O)=C(C(Sc2ccc(Cl)cc2)c2ccc(Cl)cc2)C(=O)c2ccccc21 (centres unmarked) | µM | = | 43.6
O=C1C(O)=C(C(Sc2ccc(Cl)cc2Cl)c2ccccc2)C(=O)c2ccccc21 (centres unmarked) | µM | = | 82.1
O=C1C(O)=C(C(Sc2ccc(Cl)cc2)c2cn(-c3cc(Cl)cc(Cl)c3)nn2)C(=O)c2ccccc21 (centres unmarked) | µM | = | 34.1
O=C1C(O)=C(C(Sc2ccc(Cl)cc2)c2ccccc2)C(=O)c2c(O)cccc21 (centres unmarked) | µM | = | 41.1
COc1ccc(C(Sc2ccc([N+](=O)[O-])cc2)C2=C(O)C(=O)c3ccccc3C2=O)cc1 (centres unmarked) | µM | = | 40.6

----------
# assay text: Cytotoxicity in vitro assay (CellTiter Glo, ATP level)
# Type: cell-based
# condition set: African green monkey, Vero cells, Table 1, mean ± SD, read-out: Vero Cells Toxicity CC50
# Description: The cultures were maintained at 37 °C in humidified atmosphere of 5% CO2. To evaluate the toxic effects of the 1,4-naphthoquinone derivatives on mammalian cells, Vero cells were seeded at a density of 1.5 × 10^4 cells/well in 96-well white culture plates. […] After incubation, the cell viability, measured by ATP level, was assessed by adding 20 µL/well of the CellTiter Glo (Promega Corporation, Madison, WI, EUA) solution. […]

molecule | CC50 at 72 h (µM)
O=C1C(O)=C(C(Sc2ccc(Cl)cc2Cl)c2ccccc2)C(=O)c2ccccc21 (stereo not drawn) [Compound 1d] | 82.1
O=C1C(O)=C(C(Sc2ccc(Cl)cc2)c2ccccc2Cl)C(=O)c2ccccc21 (stereo not drawn) [Compound 1c] | 44.1
O=C1C(O)=C(C(Sc2ccc(Cl)cc2)c2cccc(Cl)c2)C(=O)c2ccccc21 (stereo not drawn) [Compound 1b] | 42.1

----------
# Tested on: T. cruzi trypomastigotes Y strain
# assay text: Trypanocidal activity against trypomastigotes, Y strain (CellTiter Glo)
# Format: cell-based
# condition set: Trypanosoma cruzi; trypomastigotes, 24 h, mean ± SD of three experiments; read-out: Trypanocidal Effect Trypomastigotes Y Strain IC50
Recorded measurements of IC50, one per entry

compound | IC50 (µM)
COc1ccc(C(Sc2ccc3ccccc3c2)C2=C(O)C(=O)c3ccccc3C2=O)cc1 (centres unmarked) | 24.5
COc1ccc(C(Sc2ccc(Cl)cc2)C2=C(O)C(=O)c3ccccc3C2=O)cc1 (centres unmarked) | 10.2
COc1ccc(C(Sc2ccccc2)C2=C(O)C(=O)c3ccccc3C2=O)cc1 (centres unmarked) | 31.2
COc1ccc(SC(C2=C(O)C(=O)c3ccccc3C2=O)c2ccc(OC)cc2)cc1 (centres unmarked) | 10.6
O=C1C(O)=C(C(Sc2ccc(Cl)cc2)c2cn(-c3cc(Cl)cc(Cl)c3)nn2)C(=O)c2ccccc21 (centres unmarked) | 4.7
O=C1C(O)=C(C(Sc2ccc(Cl)cc2Cl)c2ccccc2)C(=O)c2ccccc21 (centres unmarked) | 2.8
CCCSC(C1=C(O)C(=O)c2ccccc2C1=O)c1ccc(OC)cc1 (centres unmarked) | 12.7
COc1ccc(C(Sc2ccc(F)cc2)C2=C(O)C(=O)c3ccccc3C2=O)cc1 (centres unmarked) | 20.3

----------
Recorded measurements of IC50, one per entry
# System: T. cruzi trypomastigotes Y strain
# assay text: Trypanocidal activity against trypomastigotes, Y strain (CellTiter Glo)
# Type: cell-based
# condition set: Trypanosoma cruzi; trypomastigotes, 24 h, mean ± SD of three experiments; read-out: Trypanocidal Effect Trypomastigotes Y Strain IC50

molecule | target of assay | IC50
COc1ccc(C(Sc2ccccc2C)C2=C(O)C(=O)c3ccccc3C2=O)cc1 (centres unmarked) [Compound 2b] | T. cruzi trypomastigotes Y strain | 27.9 µM
O=C1C(O)=C(C(Sc2ccc(Cl)cc2)c2ccccc2Cl)C(=O)c2ccccc21 (centres unmarked) [Compound 1c] | T. cruzi trypomastigotes Y strain | 4.3 µM
O=C1C(O)=C(C(Sc2ccc(Cl)cc2)c2cccc(Cl)c2)C(=O)c2ccccc21 (centres unmarked) [Compound 1b] | T. cruzi trypomastigotes Y strain | 3.6 µM
COc1ccc(C(Sc2ccc(C)cc2)C2=C(O)C(=O)c3ccccc3C2=O)cc1 (centres unmarked) [Compound 2d] | T. cruzi trypomastigotes Y strain | 31.1 µM
COc1ccc(C(Sc2cccc(C)c2)C2=C(O)C(=O)c3ccccc3C2=O)cc1 (centres unmarked) [Compound 2c] | T. cruzi trypomastigotes Y strain | 26.2 µM
COc1ccc(C(Sc2ccc(SC)cc2)C2=C(O)C(=O)c3ccccc3C2=O)cc1 (centres unmarked) [Compound 2j] | T. cruzi trypomastigotes Y strain | 89.6 µM
O=C1C(O)=C(C(Sc2ccc(Cl)cc2)c2ccc(Cl)cc2)C(=O)c2ccccc21 (centres unmarked) [Compound 1a] | T. cruzi trypomastigotes Y strain | 3.1 µM
COc1ccc(C(Sc2ccc([N+](=O)[O-])cc2)C2=C(O)C(=O)c3ccccc3C2=O)cc1 (centres unmarked) [Compound 2f] | T. cruzi trypomastigotes Y strain | 12.5 µM

----------
readout label: melting point

compound | readout label | result
COc1ccc(C(Sc2ccc3ccccc3c2)C2=C(O)C(=O)c3ccccc3C2=O)cc1 (stereo not shown) | melting point | 56 to 57 °C
O=C1C(O)=C(C(Sc2ccc(Cl)cc2)c2ccc(Cl)cc2)C(=O)c2ccccc21 (stereo not shown) | melting point | 135 to 136 °C
COc1ccc(C(Sc2ccccc2C)C2=C(O)C(=O)c3ccccc3C2=O)cc1 (stereo not shown) | melting point | 54 to 55 °C
COc1ccc(C(Sc2ccc(F)cc2)C2=C(O)C(=O)c3ccccc3C2=O)cc1 (stereo not shown) | melting point | 132 to 134 °C
O=C1C(O)=C(C(Sc2ccc(Cl)cc2)c2cn(-c3cc(Cl)cc(Cl)c3)nn2)C(=O)c2ccccc21 (stereo not shown) | melting point | 142 to 143 °C
O=C1C(O)=C(C(Sc2ccc(Cl)cc2Cl)c2ccccc2)C(=O)c2ccccc21 (stereo not shown) | melting point | 144 to 145 °C
O=C1C(O)=C(C(Sc2ccc(Cl)cc2)c2ccccc2Cl)C(=O)c2ccccc21 (stereo not shown) | melting point | 183 to 184 °C
